Item-by-item account of IC50
Test system: P. falciparum 3D7 growth, pLDH absorbance
Assay: blood-stage malaria parasite growth potency – strain 3D7, dose response (AID 2305)
The reply should contain only the number, in nM.

Some entries whose results are on file:
Cc1ccc(NC(=O)c2nc(N3CCN(c4ccncc4)CC3)ccc2Cl)cc1F; 810
CS(=O)(=O)c1ccc(CCNCc2ccc(-c3ccc(CN(C(=O)C4CC(=O)c5ccccc54)C4Cc5ccccc5C4)cc3)nc2)cc1 (centres undefined); 860
O=C(Nc1ccc(Cl)cc1)Nc1ccc2nonc2c1; 1100

Pending molecule:
IN: # value lookup — system P. falciparum 3D7 growth, pLDH absorbance, readout IC50, item O=C(Nc1ccc(Cl)cc1)c1cc(Cl)ccc1NC(=O)C1(c2ccc(Cl)cc2)CCCC1
OUT: 1100

----------
Item-by-item account of pIC50
System: P. falciparum 3D7 growth, pLDH absorbance
Experiment: blood-stage malaria parasite growth potency – strain 3D7, dose response (AID 2305)
Hey, just a heads up that pIC50 is the negative log base 10 of the concentration in molar.

CCc1cccc(-n2c(=O)c3cccnc3n2CC(=O)NCc2ccccc2Cl)c1; 6.13
CC1Cc2ccccc2N1CC(=O)Nc1cc(C(F)(F)F)ccc1-n1cncn1 (stereo not given); 6.49

IN: Reported pIC50 for CCNc1cc(C)nc(Nc2ccc(NS(=O)(=O)c3ccccc3)cc2)n1 : what is it?
OUT: 6.10

IN: Next up: O=C(c1ccc(-c2ccccn2)s1)N1CCc2cc3nccc(N4CCN5CCC[C@H]5C4)c3cc21
OUT: 6.12

----------
System: P. falciparum 3D7 growth, pLDH absorbance
Test: blood-stage malaria parasite growth potency – strain 3D7, dose response (AID 2305)
Threshold 1000 nM: IC50 strictly smaller gives true, otherwise false.

Worked cases, answers included:
O=C(NC1CCC(CN2CCC(c3c[nH]c4ccccc34)CC2)CC1)C1(O)c2ccccc2-c2ccccc21 (stereo not given); false
O=C(Nc1ccc2c(c1)CCC2)c1cccc(CN2CCCN(Cc3cccc(O)c3)CC2)c1; false
COc1ccc(C(=C(C)CC(C)C(=O)O)c2ccccc2)cc1 (stereo not given); true
O=C(Nc1ccccc1N1CCOCC1)c1ncoc1-c1ccccc1C(F)(F)F; false
COc1ccc(OCC(O)CN(Cc2ccccc2OC)C(=O)Nc2ccc(Br)cc2)cc1 (stereo not given); true
CN1CCN(CCCN(Cc2cccc(-c3ccc(CNCCc4ccccc4)cc3)c2)C(=O)Nc2ccccc2)CC1; true
CCNc1cc(C(=O)N[C@@H](Cc2ccc(F)c(F)c2)[C@H](O)CNCc2cccc(OC)c2)cc(N2CCCCS2(=O)=O)c1; true
CN1CCN(Cc2c(O)ccc3c(=O)c(Oc4ccc(C(C)(C)C)cc4)c(C(F)(F)F)oc23)CC1; true

IN: Is the reported IC50 for Cc1ccc(-n2cc(CNCCc3ncc(C)[nH]3)c(-c3ccc(F)cc3)n2)cc1 strictly below 1000 nM?
OUT: false

IN: Next up: CC(C)(C)NS(=O)(=O)c1cc(C(=O)N2CCC(CCN3CCC(O)(c4cccc(C(F)(F)F)c4)CC3)(c3cccc(F)c3)CC2)c(Cl)cc1F
OUT: true

IN: Next up: COc1ccc(Nc2nc(C)cc(NCc3ccc(-c4c(C)noc4C)cc3)n2)cc1
OUT: true

IN: Next up: CCc1sc(N2CCC(C)CC2)nc1C(=O)Nc1ccc(F)cc1C(F)(F)F
OUT: false
